Data origin: ChEMBL document CHEMBL1287796

Target protein (sequence): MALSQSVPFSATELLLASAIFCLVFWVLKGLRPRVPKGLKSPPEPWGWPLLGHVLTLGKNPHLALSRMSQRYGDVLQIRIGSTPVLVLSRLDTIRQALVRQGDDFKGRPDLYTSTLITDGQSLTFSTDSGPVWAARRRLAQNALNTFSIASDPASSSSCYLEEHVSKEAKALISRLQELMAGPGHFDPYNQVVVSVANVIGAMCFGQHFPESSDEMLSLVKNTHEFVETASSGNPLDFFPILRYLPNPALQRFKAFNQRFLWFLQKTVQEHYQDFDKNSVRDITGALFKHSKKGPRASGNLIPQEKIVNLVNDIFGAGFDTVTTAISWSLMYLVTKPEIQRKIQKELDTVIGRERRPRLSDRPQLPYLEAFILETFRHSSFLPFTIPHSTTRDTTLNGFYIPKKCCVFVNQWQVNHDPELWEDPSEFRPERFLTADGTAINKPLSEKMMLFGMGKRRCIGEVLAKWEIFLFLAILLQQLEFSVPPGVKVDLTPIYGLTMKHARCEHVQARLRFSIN
pIC50: −log10 of the molar value.
Consider the following compounds and their measured pIC50 readings.

{"SMILES RECORD": "Cc1ccc(F)cc1Cn1c(N2CCC[C@@](C)(N)C2)cc2c1c(=O)n(C)c(=O)n2C.Cl", "pIC50": "< 4.40"}
{"SMILES RECORD": "Cc1ccc(F)cc1Cn1c(N2CCC[C@@](C)(N)C2)cc2ncn(C)c(=O)c21.Cl", "pIC50": "< 4.40"}
{"SMILES RECORD": "Cl.Cn1c(=O)c2c(cc(N3CCC[C@@](C)(N)C3)n2Cc2cc(F)ccc2Cl)n(C)c1=O", "pIC50": "< 4.40"}

* * *

Experiment: Half life in rat at 10 mg/kg, po
Type: ADME, organism-based
Design: dose 10 mg/kg, route oral
Conditions: in vivo

{"SMILES RECORD": "Cc1ccc(F)cc1Cn1c(N2CCC[C@@](C)(N)C2)cc2c1c(=O)n(C)c(=O)n2C.Cl", "half-life, h": 4.69}

* * *

Biological target: Cytochrome P450 3A4 (Homo sapiens, UniProt P08684)
Sequence (P08684 whole entry): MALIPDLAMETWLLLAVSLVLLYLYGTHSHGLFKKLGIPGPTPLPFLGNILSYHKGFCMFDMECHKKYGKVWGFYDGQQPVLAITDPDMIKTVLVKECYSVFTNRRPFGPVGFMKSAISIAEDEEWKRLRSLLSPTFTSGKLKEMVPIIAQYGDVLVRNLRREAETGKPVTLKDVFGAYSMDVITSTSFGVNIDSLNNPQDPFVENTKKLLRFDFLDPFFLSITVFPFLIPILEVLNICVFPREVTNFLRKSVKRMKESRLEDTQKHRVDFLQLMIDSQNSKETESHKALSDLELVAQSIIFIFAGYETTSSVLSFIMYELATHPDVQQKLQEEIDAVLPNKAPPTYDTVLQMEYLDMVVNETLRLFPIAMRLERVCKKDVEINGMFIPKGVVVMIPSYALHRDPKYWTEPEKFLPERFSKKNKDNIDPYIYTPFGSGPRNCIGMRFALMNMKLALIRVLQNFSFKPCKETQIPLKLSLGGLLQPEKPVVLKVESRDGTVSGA
pIC50: −log10 of the molar value.
MEASUREMENT NAME: pIC50

{"SMILES RECORD": "Cl.Cn1c(=O)c2c(cc(N3CCC[C@@](C)(N)C3)n2Cc2cc(F)ccc2Cl)n(C)c1=O", "MEASUREMENT NAME": "pIC50", "VAL": 4.99}
{"SMILES RECORD": "CCn1c(=O)n(C)c(=O)c2c1cc(N1CCC[C@@](C)(N)C1)n2Cc1cc(F)ccc1C#N.Cl", "MEASUREMENT NAME": "pIC50", "VAL": 5.03}
